Tested on: Neuregulin-1 EGF-like domain
Assay: binders of neuregulin-1 EGF-like domain, primary screen, biochemical, small-molecule microarray, 635 nm fluorescence (AID 1081);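 further: binding of the protein to compounds printed on small-molecule microarray slides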
Settings: small-molecule microarray binding, higher = more signal
Each entry below lists one item and its recorded composite z-score value.
measured quantity: composite z-score

INSERT INTO results (compound, measured_quantity, value_observed) VALUES
  ('NC(=O)NCC#Cc1ccc2c(c1)[C@]1(C(=O)N2)[C@H](C(=O)Nc2nc3ccccc3s2)[C@H]2C(=O)O[C@H](c3ccccc3)[C@H](c3ccccc3)N2[C@@H]1c1ccccc1OCCO', 'composite z-score', 0.406),
  ('Cc1ccc(S[C@]2(C(=O)NC3CC3)CC(=O)N(Cc3ccccc3)[C@@H]2c2ccc(CO)cc2I)cc1', 'composite z-score', 0.966),
  ('O=C1c2ccccc2[C@](Cc2ccccc2I)(C(=O)NCCN2CCOCC2)[C@H](c2ccc(CO)cc2)N1C1CCCCC1', 'composite z-score', 1.22),
  ('COCCOC(=O)N1C(=O)[C@@]2(c3cc(C#CC4(O)CCCCCC4)ccc31)[C@H](c1ccc(OCCO)cc1)N1[C@H](c3ccccc3)[C@H](c3ccccc3)OC(=O)[C@H]1[C@@H]2C(=O)N1CCN(c2ncccn2)CC1', 'composite z-score', 0.966),
  ('CC1CC/C=C\[C@H]2OC34C=CCN(C(C)(C)C)C(=O)[C@H]3N(CCO)C(=O)[C@@H]4C2C(=O)O1 (some centres not stated)', 'composite z-score', 0.784),
  ('COc1cc2c(cc1O)C(c1cccs1)N(C)CC2 (configuration not stated)', 'composite z-score', -0.31),
  ('NC(=O)NCC#Cc1ccc2c(c1)[C@]1(C(=O)N2)[C@H](c2ccc(O)cc2)N2[C@H](c3ccccc3)[C@H](c3ccccc3)OC(=O)[C@H]2[C@@H]1C(=O)O', 'composite z-score', -0.224);

---

Experiment: small-molecule microarray binders of probe aXIP, primary screen, biochemical, NeuroSMM set, 635/667 nm fluorescence (AID 1119);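 further: probe is the protein aXip251-270 applied at 1 µg/mL to compound-printed slides; binding of probe to printed compounds measured as 667 nm fluorescence plus signal to noise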
Details: higher = more signal, called active from +8 up or from −8 down
measured quantity: composite Z-score

INSERT INTO measurements (molecule, value_observed) VALUES
  ('NC(=O)NCC#Cc1ccc2c(c1)[C@]1(C(=O)N2)[C@H](c2ccc(O)cc2)N2[C@H](c3ccccc3)[C@H](c3ccccc3)OC(=O)[C@H]2[C@@H]1C(=O)O', 0.619),
  ('C=C[C@@H](COC(=O)OC(C)(C)C)N(Cc1ccc(OC)cc1)S(=O)(=O)c1ccc(Br)cc1', 0.342),
  ('COc1ccc(C(O)C2C=CC3C(=O)N(Cc4ccccc4)C(=O)C3N2n2cnnc2)cc1OCc1ccccc1 (stereo unspecified)', -1.19),
  ('COC(=O)[C@@]1(Cc2ccc(OC)cc2)[C@H]2c3cc(C(=O)N4CCCC4)n(CCN4CNCC4=O)c3C[C@H]2CN1C(=O)c1ccccc1', 0.413),
  ('CN1C=C(C(=O)OCCS(C)(=O)=O)C(C(=O)OCCS(C)(=O)=O)=CC(c2ccc(CO)cc2)=CC1C1CC1 (stereo unspecified)', 0.0063),
  ('CCCC[C@H]1OB(O)C[C@H]2C1=C(COC)C[C@H]1C(=O)N(C)C(=O)[C@H]12', -0.618),
  ('COc1ccc(-c2cc3c(c(-c4ccc(Oc5ccccc5)cc4)n2)[Si](C(C)C)(C(C)C)OC3)cn1', -0.108),
  ('CC(C)N1C(=O)c2ccccc2[C@](C)(C(=O)NCCN2CCOCC2)[C@@H]1c1ccc(CO)cc1', -0.523),
  ('O=C(NC1CC1)[C@@H]1c2ccccc2C(=O)N(Cc2ccccc2Cl)[C@H]1c1ccc(CO)cc1', 0.0965),
  ('COc1ccc([C@H]2OC[C@@H]3C[C@@H](Cc4ccccc4)C(=O)N32)cc1', 0.584),
  ('O=C(NCCN1CCOCC1)[C@@H]1c2ccccc2C(=O)N(C2CCCCC2)[C@H]1c1ccc(CO)cc1', -0.118),
  ('[N-]=[N+]=NCc1ccccc1[C@@H]1OC(c2ccc(OCCCO)cc2)=N[C@]1(Cc1ccccc1)C(=O)NCC(O)CO (stereo partly specified)', 1.57),
  ('CCS[C@H]1[C@@H](C(=O)O)[C@H](c2ccc(C)cc2)N(S(=O)(=O)c2ccc(C)cc2)[C@@H]1CC', -0.0164),
  ('C=C[C@H](C)[C@@H](OC(=O)Nc1ccc(OC)cc1)c1ccc(O)c2ccccc12', -0.734),
  ('CC(C)[Si](C#Cc1ccc(Oc2ccccc2)cc1)(O[Si](C#Cc1ccc(Oc2ccccc2)cc1)(C(C)C)C(C)C)C(C)C', 0.387),
  ('C[N+](C)(C)CCCCNC(=O)[C@H]1C[C@H]2C(=O)N3CCC[C@H]3C(=O)N2[C@H]1c1cccc(OCCO)c1', -0.166);
